target: hGLP1R (Homo sapiens); construct: expressed in transfected cells; host or cells: HEK-293 cells carrying a CRE-luciferase reporter gene; assay: hGLP1R CreLuc reporter gene assay in 0.5% and 100% plasma; type: cell-based; conditions: CreLuc reporter gene assay, 0.5% human plasma; read-out: hGLP1R 0.5% hP
Sequence (P43220 24-463): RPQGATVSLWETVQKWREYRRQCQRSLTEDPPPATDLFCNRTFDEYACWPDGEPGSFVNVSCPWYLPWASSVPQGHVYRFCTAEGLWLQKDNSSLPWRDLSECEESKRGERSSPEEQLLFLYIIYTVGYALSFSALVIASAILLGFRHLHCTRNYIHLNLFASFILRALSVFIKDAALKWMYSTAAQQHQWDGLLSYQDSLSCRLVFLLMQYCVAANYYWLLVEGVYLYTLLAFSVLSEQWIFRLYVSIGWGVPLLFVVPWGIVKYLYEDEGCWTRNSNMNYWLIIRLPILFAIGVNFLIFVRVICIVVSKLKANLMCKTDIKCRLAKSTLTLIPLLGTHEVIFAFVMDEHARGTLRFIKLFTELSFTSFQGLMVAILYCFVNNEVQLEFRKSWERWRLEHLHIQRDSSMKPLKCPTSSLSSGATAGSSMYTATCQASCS
Starred links: 1 amine or outer side, 2 acyl side, 3 side chain; linkers in the order of their positions; H or OH if unused. Non-standard residues stand in square brackets, D forms with d. Groups on a side chain read outwards from the residue. *: point of attachment. C20 diacid = O=C(O)CCCCCCCCCCCCCCCCCCC(=O)*; C18 diacid = O=C(O)CCCCCCCCCCCCCCCCC(=O)*; γGlu = O=C(O)[C@H](CCC(=O)[*:2])N[*:1]; εLys = N[C@@H](CCCCN[*:1])C(=O)[*:2]; NMeR = CN[C@@H](CCCNC(=N)N)C(=O)O; AEEA = NCCOCCOCC(=O)O; Aib = CC(C)(N)C(=O)O
# maps each entry to its pEC50
// returns pEC50 (minus log10 of molar concentration), number only

// worked examples, pEC50 included
[
  {
    "Substance": "H-Y[Aib]EGTFTSDYSI[Aib]LEKQAQ[Aib]AFVEWLIK([εLys-γGlu-γGlu-γGlu-γGlu-γGlu-γGlu-C20 diacid])GGPSSGAS[Aib]RHYYNWLTRQR[dY]-NH2 [Compound 74]",
    "pEC50": 10.10
  },
  {
    "Substance": "H-Y[Aib]EGTFTSDYSI[Aib]LEKQAQ[Aib]AFVEWLIK([AEEA-AEEA-γGlu-γGlu-γGlu-γGlu-C20 diacid])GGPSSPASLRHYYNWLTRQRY-NH2 [Compound 175]",
    "pEC50": 10.00
  },
  {
    "Substance": "H-Y[Aib]EGTFTSDYSI[Aib]LEKQAQ[Aib]AFVQWLIK([γGlu-γGlu-γGlu-γGlu-γGlu-C18 diacid])GGPESPASLRHYYNWLTRQRY-NH2 [Compound 12]",
    "pEC50": 9.96
  }
]

### Prompt // fetch hGLP1R (Homo sapiens) pEC50 for H-Y[Aib]EGTFTSDYSI[Aib]LEKQAQ[Aib]AFVQWLIK([εLys-γGlu-γGlu-γGlu-γGlu-γGlu-γGlu-C20 diacid])GGPSEGASLRHYYNWLTRQ[NMeR]Y-NH2 [Compound 125]
### Response 9.64

### Prompt Another substance to look at: H-Y[Aib]EGTFTSDYSI[Aib]LEKQAQ[Aib]EFVEWLIK([εLys-γGlu-γGlu-γGlu-γGlu-γGlu-γGlu-C20 diacid])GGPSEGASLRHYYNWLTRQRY-NH2 [Compound 275]
### Response 9.30
